Where do these numbers come from? They come from patent US12486233B2.

Assay: Dynamic Vapor Sorption (DVS): hygroscopicity and sorption properties
Format: physicochemical
Settings: DVS, 25° C.; European Pharmacopeia classification where stated
Description: Dynamic Vapor Sorption (DVS) was performed using a Hiden Analytical Instruments IGAsorp Vapor Sorption Balance. Approximately 30 mg of sample was placed into a wire-mesh Vapor sorption balance pan, loaded into the IGAsorp Vapor sorption balance and held at 25° C.±0.1° C. […] The weight change during the sorption cycle was monitored, allowing for the hygroscopic nature of the sample to be determined. […]
metric: hygroscopicity classification

A selection of reference data follows.
| compound | hygroscopicity classification |
| --- | --- |
| COc1cc2nccc(Oc3ccc(NC(=O)C4(C(=O)Nc5ccc(F)cc5)CC4)cc3)c2cc1OC [Compound 1 Form I] | non-hygroscopic |
| COc1cc2nccc(Oc3ccc(NC(=O)C4(C(=O)Nc5ccc(F)cc5)CC4)cc3)c2cc1OC [Compound 1 Form III] | non-hygroscopic |
| COc1cc2nccc(Oc3ccc(NC(=O)C4(C(=O)Nc5ccc(F)cc5)CC4)cc3)c2cc1OC [Compound 1 Amorphous Form] | hygroscopic |
| COc1cc2nccc(Oc3ccc(NC(=O)C4(C(=O)Nc5ccc(F)cc5)CC4)cc3)c2cc1OC [Compound 1 Form XXX] | hygroscopic |

Just so you know, measured hygroscopicity classification for COc1cc2nccc(Oc3ccc(NC(=O)C4(C(=O)Nc5ccc(F)cc5)CC4)cc3)c2cc1OC [Compound 1 Form XXVIII] came out at non-hygroscopic
